Assignment: determine reported IC50 for the given molecules.
# Target Desc: ROS1 (G2032R) (Homo sapiens (Human), UniProt P08922, G2032R)
# Sequence (P08922 28-2347 G2032R): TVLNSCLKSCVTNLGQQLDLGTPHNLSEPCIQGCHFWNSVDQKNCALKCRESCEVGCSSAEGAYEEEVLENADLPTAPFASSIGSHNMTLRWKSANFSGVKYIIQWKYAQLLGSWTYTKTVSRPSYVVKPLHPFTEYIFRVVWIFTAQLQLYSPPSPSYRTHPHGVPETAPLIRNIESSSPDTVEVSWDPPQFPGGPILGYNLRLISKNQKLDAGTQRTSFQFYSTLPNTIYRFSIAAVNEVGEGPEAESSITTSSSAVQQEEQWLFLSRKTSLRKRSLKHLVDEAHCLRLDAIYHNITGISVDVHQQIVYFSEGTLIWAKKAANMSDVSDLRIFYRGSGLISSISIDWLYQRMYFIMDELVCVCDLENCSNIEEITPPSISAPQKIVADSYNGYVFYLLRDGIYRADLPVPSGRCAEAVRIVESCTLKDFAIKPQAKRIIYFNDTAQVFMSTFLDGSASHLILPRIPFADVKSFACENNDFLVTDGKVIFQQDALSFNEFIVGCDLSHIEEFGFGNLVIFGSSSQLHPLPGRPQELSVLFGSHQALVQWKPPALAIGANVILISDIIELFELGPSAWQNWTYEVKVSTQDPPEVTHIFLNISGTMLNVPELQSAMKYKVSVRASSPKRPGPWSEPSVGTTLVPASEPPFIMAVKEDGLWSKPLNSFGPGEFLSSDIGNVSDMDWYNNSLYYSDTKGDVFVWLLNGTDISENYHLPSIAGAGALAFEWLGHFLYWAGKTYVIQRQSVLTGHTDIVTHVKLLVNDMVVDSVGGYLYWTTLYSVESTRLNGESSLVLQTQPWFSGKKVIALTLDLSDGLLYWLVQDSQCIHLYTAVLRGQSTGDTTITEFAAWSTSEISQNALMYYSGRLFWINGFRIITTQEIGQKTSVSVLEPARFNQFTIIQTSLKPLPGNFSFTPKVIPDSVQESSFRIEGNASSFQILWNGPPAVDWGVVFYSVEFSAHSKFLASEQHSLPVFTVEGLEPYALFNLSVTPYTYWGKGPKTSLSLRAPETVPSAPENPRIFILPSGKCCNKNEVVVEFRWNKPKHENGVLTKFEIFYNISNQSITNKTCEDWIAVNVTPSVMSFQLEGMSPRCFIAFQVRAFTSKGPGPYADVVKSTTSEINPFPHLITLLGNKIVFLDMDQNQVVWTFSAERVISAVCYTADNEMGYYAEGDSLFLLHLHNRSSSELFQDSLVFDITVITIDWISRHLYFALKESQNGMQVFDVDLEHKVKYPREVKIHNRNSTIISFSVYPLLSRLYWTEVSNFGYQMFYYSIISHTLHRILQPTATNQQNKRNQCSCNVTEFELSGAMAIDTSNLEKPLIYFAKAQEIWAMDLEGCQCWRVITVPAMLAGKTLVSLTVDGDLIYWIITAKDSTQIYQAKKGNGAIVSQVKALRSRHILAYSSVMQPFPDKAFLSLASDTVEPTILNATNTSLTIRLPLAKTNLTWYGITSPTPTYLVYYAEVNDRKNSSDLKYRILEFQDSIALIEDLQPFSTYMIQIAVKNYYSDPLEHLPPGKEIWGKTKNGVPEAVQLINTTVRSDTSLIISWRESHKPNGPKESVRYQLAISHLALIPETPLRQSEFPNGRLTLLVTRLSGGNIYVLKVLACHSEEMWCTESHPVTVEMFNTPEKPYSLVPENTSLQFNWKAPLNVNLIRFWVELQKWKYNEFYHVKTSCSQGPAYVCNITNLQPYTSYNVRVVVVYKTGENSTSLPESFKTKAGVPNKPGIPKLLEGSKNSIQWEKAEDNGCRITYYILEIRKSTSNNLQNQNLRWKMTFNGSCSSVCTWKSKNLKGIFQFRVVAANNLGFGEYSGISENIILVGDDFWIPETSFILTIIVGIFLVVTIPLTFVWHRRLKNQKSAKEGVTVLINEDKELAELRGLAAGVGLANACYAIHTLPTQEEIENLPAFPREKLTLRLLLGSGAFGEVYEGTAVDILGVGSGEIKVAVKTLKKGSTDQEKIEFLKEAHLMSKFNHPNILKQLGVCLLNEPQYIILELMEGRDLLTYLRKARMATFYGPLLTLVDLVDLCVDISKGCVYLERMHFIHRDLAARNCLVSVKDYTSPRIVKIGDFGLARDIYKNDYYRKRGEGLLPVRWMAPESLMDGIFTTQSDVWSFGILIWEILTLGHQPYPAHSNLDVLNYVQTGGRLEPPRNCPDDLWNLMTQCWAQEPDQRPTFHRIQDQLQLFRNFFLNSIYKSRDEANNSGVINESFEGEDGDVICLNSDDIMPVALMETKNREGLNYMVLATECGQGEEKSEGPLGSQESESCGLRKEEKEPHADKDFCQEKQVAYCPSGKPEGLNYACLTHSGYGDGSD
# Test: Radio-tagged HotSpot kinase assay, ROS1 (G2032R)
# Format: biochemical

Use these answered entries as a reference point.
                              smiles_record    obs_value
0  C[C@@H](Nc1ccn2ncc(C3=NOCCN3)c2n1)c1cc(F)cc(C(F)(F)F)c1F   5 to 50 nM
1  C[C@@H](Nc1ccn2ncc(C3=NOCC(C)(C)N3)c2n1)c1cc(F)cc(F)c1F  0.5 to 5 nM
2  C[C@@H](Nc1ccn2ncc(C3=NOCCN3)c2n1)c1cc(F)ccc1OC(F)(F)F  0.5 to 5 nM
3  COc1ccc(F)cc1[C@@H](C)Nc1ccn2ncc(NC3=NC(C)(C)CN3)c2n1   5 to 50 nM

Okay, here is my list. What is IC50 for each of these?
1. COc1ccc(F)cc1[C@@H](C)Nc1ccn2ncc(OC3=NC(C)(C)CN3)c2n1
2. COc1ccc(F)cc1[C@@H](C)Nc1ccn2ncc(NC3=NC(C)(C)CO3)c2n1
3. COc1ncc(F)cc1[C@@H](C)Nc1ccn2ncc(C3=NC(=O)C(C)(C)N3)c2n1

A.
1. 5 to 50 nM
2. 0.5 to 5 nM
3. < 0.5 nM

Okay, here is my list. What is IC50 for each of these?
1. C[C@@H](Nc1ccn2ncc(C3=NN=CC(C)(C)N3)c2n1)c1cc(F)cc(F)c1F
2. C[C@@H](Nc1ccn2ncc(C3=NOCC(C)(C)N3)c2n1)c1cc(F)ccc1OC(F)F
3. C[C@@H](Nc1ccn2ncc(C(=O)NOCCO)c2n1)c1cc(F)cc(F)c1F
4. C[C@@H](Nc1ccn2ncc(C3=NC(=O)C(C)(C)N3)c2n1)c1cc(F)cc(F)c1F
5. C[C@@H](Nc1ccn2ncc(C3=NC(=O)C(C)(C)N3)c2n1)c1cc(F)cnc1OCC(F)(F)F
6. C[C@@H](Nc1ccn2ncc(NC3=NCC(C)(C)N3)c2n1)c1cc(F)cc(F)c1F

A.
1: 5 to 50 nM; 2: 5 to 50 nM; 3: 50 to 500 nM; 4: < 0.5 nM; 5: 0.5 to 5 nM; 6: 5 to 50 nM

Okay, here is my list. What is IC50 for each of these?
1. C[C@@H](Nc1ccn2ncc(C3=NC(=O)C(C)(C)N3)c2n1)c1cc(F)ccc1OC(F)(F)F
2. COc1ccc(F)cc1[C@@H](C)Nc1ccn2ncc(C3=NC(=O)C(C)(C)N3)c2n1
3. C[C@@H](Nc1ccn2ncc(C3=NC(=O)C(C)(C)N3)c2n1)c1cc(F)cnc1OC(F)(F)F

A.
1: 0.5 to 5 nM; 2: < 0.5 nM; 3: 0.5 to 5 nM

The recorded IC50 for entry C[C@@H](Nc1ccn2ncc(C3=NOCCN3)c2n1)c1cc(F)ccc1C(F)(F)F equals 50 to 500 nM

###

# Target Desc: ALK (Homo sapiens (Human))
# Sequence (Q9UM73 19-1620): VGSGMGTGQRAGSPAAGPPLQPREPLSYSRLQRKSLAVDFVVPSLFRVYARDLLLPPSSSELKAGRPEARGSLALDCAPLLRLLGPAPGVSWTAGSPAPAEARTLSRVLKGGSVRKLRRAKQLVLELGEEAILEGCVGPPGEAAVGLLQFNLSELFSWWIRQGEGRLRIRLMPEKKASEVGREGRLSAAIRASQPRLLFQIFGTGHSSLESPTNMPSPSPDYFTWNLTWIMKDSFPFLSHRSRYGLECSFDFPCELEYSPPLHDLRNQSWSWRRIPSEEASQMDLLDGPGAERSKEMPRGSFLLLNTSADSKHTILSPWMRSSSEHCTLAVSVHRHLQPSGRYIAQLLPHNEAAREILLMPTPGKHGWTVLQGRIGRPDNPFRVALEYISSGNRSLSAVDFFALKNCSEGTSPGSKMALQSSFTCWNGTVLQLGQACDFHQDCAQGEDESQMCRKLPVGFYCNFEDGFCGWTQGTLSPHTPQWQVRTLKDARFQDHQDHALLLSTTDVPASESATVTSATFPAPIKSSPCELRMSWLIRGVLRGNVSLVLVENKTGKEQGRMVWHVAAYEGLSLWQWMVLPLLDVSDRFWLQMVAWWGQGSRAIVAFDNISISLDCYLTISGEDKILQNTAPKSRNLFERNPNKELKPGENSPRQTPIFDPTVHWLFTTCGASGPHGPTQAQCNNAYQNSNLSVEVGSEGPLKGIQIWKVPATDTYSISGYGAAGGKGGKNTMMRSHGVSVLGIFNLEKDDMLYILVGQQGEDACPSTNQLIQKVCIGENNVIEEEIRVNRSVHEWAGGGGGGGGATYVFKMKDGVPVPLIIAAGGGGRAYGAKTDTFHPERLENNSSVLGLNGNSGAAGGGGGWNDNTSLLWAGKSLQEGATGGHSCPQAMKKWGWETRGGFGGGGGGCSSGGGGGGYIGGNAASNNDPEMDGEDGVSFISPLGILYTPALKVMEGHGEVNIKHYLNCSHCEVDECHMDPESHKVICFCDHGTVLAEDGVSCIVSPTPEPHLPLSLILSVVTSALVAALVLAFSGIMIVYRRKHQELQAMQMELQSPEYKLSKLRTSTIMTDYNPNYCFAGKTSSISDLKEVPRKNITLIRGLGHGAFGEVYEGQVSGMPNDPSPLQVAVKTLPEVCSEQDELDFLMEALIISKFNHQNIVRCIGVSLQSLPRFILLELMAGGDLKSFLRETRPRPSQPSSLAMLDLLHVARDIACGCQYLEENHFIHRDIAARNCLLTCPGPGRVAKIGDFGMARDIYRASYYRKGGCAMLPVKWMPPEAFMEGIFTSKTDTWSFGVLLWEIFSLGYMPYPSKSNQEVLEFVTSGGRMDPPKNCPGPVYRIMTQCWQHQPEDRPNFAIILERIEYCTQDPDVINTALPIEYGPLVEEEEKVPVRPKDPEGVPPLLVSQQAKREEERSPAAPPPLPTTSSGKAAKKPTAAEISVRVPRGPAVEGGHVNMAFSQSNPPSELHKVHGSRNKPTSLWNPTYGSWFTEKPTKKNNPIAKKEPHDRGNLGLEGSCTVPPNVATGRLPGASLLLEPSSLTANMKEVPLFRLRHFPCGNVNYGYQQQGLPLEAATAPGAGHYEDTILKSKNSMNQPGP
# Test: Radio-tagged HotSpot kinase assay, ALK
# Format: biochemical
Value Type: IC50

Use these answered entries as a reference point.
>>> df
                              smiles_record                 target_desc  value_type     obs_value
0  C[C@@H](Nc1ccn2ncc(C(=O)NOCCO)c2n1)c1cc(F)cc(F)c1F  ALK (Homo sapiens (Human))        IC50  50 to 500 nM
1  C[C@@H](Nc1ccn2ncc(C3=NOCC(C)(C)N3)c2n1)c1cc(F)cc(F)c1F  ALK (Homo sapiens (Human))        IC50   0.5 to 5 nM
2  C[C@@H](Nc1ccn2ncc(C3=NOCC(C)(C)N3)c2n1)c1cc(F)ccc1OC(F)F  ALK (Homo sapiens (Human))        IC50    5 to 50 nM
3  COc1c(F)cc(F)cc1[C@@H](C)Nc1ccn2ncc(C3=NC(=O)C(C)(C)N3)c2n1  ALK (Homo sapiens (Human))        IC50   0.5 to 5 nM

Okay, here is my list. What is IC50 for each of these?
1. COc1ncc(F)cc1[C@@H](C)Nc1ccn2ncc(C3=NC(=O)C(C)(C)N3)c2n1
2. C[C@@H](Nc1ccn2ncc(C3=NC(=O)C(C)(C)N3)c2n1)c1cc(F)cnc1OC(F)(F)F
3. C[C@@H](Nc1ccn2ncc(OC3=NCC(C)(C)N3)c2n1)c1cc(F)cc(F)c1F
4. COc1ccc(F)cc1[C@@H](C)Nc1ccn2ncc(OC3=NC(C)(C)CN3)c2n1

A.
["0.5 to 5 nM", "0.5 to 5 nM", "50 to 500 nM", "50 to 500 nM"]

Okay, here is my list. What is IC50 for each of these?
1. C[C@@H](Nc1ccn2ncc(C3=NC(=O)C(C)(C)N3)c2n1)c1cc(F)ccc1OC(F)F
2. CCCOC(=O)/N=C(\N)c1cnn2ccc(N[C@H](C)c3cc(F)cc(F)c3F)nc12
3. C[C@@H](Nc1ccn2ncc(C3=NOCCN3)c2n1)c1cc(F)ccc1OC(F)(F)F
4. C[C@@H](Nc1ccn2ncc(NC3=NCC(C)(C)N3)c2n1)c1cc(F)cc(F)c1F
5. C[C@@H](Nc1ccn2ncc(C3=NOCCN3)c2n1)c1cc(F)ccc1C(F)F
6. C[C@@H](Nc1ccn2ncc(C3=NC(=O)C(C)(C)N3)c2n1)c1cc(F)ccc1OC(F)(F)F

A.
1. 0.5 to 5 nM
2. 50 to 500 nM
3. 0.5 to 5 nM
4. 50 to 500 nM
5. 5 to 50 nM
6. 0.5 to 5 nM

Okay, here is my list. What is IC50 for each of these?
1. C[C@@H](Nc1ccn2ncc(NC3=NC(C)(C)CO3)c2n1)c1cc(F)cc(F)c1F
2. COc1ccc(F)cc1[C@@H](C)Nc1ccn2ncc(C3=NC(=O)C(C)(C)N3)c2n1

A.
1. 0.5 to 5 nM
2. 0.5 to 5 nM
